Assay: sensitizers of A549 cells to miR-34 induction, primary screen, imaging, A549 dox-inducible miR-34, nuclei and caspase counts (AID 1347080); also: test concentration not given here
Conditions: A549 miR-34 inducible, Hoechst nuclei count, 48 h; measured here: total cells without miR-34 induction
Each entry falls in a class defined on cell count; the bands are lo (below 7000), med (7000 to below 10000), hi (10000 or more)

Please review the entries below; each comes with its answer.
*Q* // return the class label for O=C(O)/C=C/CO
*A* med

*Q* Could you place O=C1Nc2ccccc2C2(CCN(CCc3ccc(C(F)(F)F)cc3)CC2)O1 in its proper category? Many thanks.
*A* lo

*Q* Record CCOP(=S)(OCC)Oc1nc(Cl)c(Cl)cc1Cl — which class?
*A* med

*Q* Dear colleague, I would appreciate it if you could identify the bin for c1cc2cc(N3CCNCC3)ccc2cn1 and reply at your convenience.
*A* lo

---
*Q* In plain terms, what class is CCCCCC(/C=C/C=O)OO (stereo not drawn) ?
*A* lo

*Q* Textbook exercise: identify the category of the compound given here, CCCCCCC(=O)O[C@H]1CC[C@H]2[C@@H]3C[C@H](O)C4=CC(=O)CC[C@]4(C)[C@H]3CC[C@]12C , according to its measured value.
*A* lo

*Q* Categorize the following entry: CCCCOC(=O)c1ccccc1C(=O)OCCCC
*A* hi
